system: cultured cerebral cortex neurons; assay: 3H-GABA release, cultured cerebral cortex neurons; assay type: cell-based; details: Cerebral cortex neuron; inhibition of stimulated 3H-GABA release, mouse cortical neurons, Table 1
pIC50: −log10 of the molar value.
value-kind: pIC50

>>> print(df.to_string())
                         compound_structure  value_kind  quantitative_result
0  CN1CCc2c(-c3ccc(C(=O)N(C)C)cc3)cc3c(c2C1)NC(=O)C3=NO       pIC50                 6.72
1  CCN(CC)S(=O)(=O)c1ccc(-c2cc3c(c4c2CCN(C)C4)NC(=O)C3=NO)cc1       pIC50                 6.80
2  CON=C1C(=O)Nc2c1cc(-c1ccc(S(=O)(=O)N(C)C)cc1)c1c2CN(C)CC1       pIC50                 5.77
3  CN1CCc2c(-c3ccc(S(=O)(=O)Nc4ccccc4)cc3)cc3c(c2C1)NC(=O)C3=NO       pIC50                 6.42
4  CN1CCc2c(-c3ccc(S(=O)(=O)N4CCOCC4)cc3)cc3c(c2C1)NC(=O)C3=O       pIC50                 5.67
